target: Voltage-gated potassium channel subunit beta-2 (Rattus norvegicus) (UniProt P62483); experiment: enhancers of rat Kvbeta2 NADPH turnover – biochemical, NADPH fluorescence, primary screen (AID 623); conditions: Recombinant KvBeta, NADPH fluorescence decrease slope, 10 min; at 10 µM; active compounds read low;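 further: fluorescence intensity change per second fitted from 20 to 320 s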
Sequence (P62483 whole entry, looked up): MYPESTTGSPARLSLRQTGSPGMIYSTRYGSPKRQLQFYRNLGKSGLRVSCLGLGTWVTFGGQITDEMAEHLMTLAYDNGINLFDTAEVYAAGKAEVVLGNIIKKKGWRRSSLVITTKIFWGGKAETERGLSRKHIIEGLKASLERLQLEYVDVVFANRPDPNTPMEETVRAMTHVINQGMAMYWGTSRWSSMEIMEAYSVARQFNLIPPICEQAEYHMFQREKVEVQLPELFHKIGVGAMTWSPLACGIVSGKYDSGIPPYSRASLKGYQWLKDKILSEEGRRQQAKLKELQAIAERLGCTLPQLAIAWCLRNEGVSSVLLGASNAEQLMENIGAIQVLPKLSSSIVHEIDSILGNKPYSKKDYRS
Calls of active or inactive are those of the source.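 How the source made its calls: active means NADPH fluorescence slope more negative than the mean of all samples by about 3 SD, 99.7% confidence; inactive means the rest.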
quantity: NADPH fluorescence slope

compound	measured-result
O=C(C1CCCO1)N1CCN(Cc2nc3ccccc3c(=O)[nH]2)CC1 (stereo not drawn)	2.2e-05 (inactive)
CC1CCCCN1C(=O)Cn1nnc(-c2cccnc2)n1 (stereo not drawn)	-4.8e-05 (inactive)
O=C(Nc1ccc(N2CCOCC2)cc1)C1CC1	-2.3e-05 (inactive)
COCCN(CC(=O)NCc1ccccc1)C(=O)CCC(=O)Nc1ccccn1	-2.7e-05 (inactive)
CN(Cc1ccccc1)C(=O)c1ccccc1NC(=O)c1ccco1	-6e-05 (inactive)
CC(=O)c1cn(CC(=O)NCc2ccc3c(c2)OCO3)c2ccccc12	-9.1e-05 (inactive)
COC(=O)C1=C(C)NC(C)=C(C(=O)OC)C1C1CC=CCC1 (stereo not drawn)	8.7e-05 (inactive)
O=C(CN(C(=O)CCNC(=O)c1ccco1)c1ccccc1)NC1CCCC1	2.6e-05 (inactive)
Cc1ccc(NC(=O)CN2CC(C)SC2=NC2CCCCC2)cc1 (stereo not drawn)	-4.1e-05 (inactive)
Cc1ccccc1C(=O)NC1CCN(Cc2nnnn2CCc2ccccc2)CC1	-3.4e-05 (inactive)
O=C(OCC(=O)N1CCCCCC1)c1cccs1	-5.7e-05 (inactive)
O=C(CN1CCCN(S(=O)(=O)c2ccc(F)cc2)CC1)Nc1ccccc1Br	2.2e-05 (inactive)
COc1ccc(Cl)cc1S(=O)(=O)n1cnc2ccccc21	9.7e-06 (inactive)
CC(C)OC(=O)c1ccc(OC(=O)c2cccnc2)cc1	-6.3e-05 (inactive)
CCC(Sc1nc2sc(C(=O)OC)c(C)c2c(=O)n1N)C(=O)NCC1CCCO1 (stereo not drawn)	-6.1e-05 (inactive)
Cc1cc(Oc2ccccc2)nc(-c2ccccc2)n1	-8.7e-05 (inactive)
Cc1cc(C)c(NC(=O)C2CSCCS2)c(C)c1 (stereo not drawn)	-6.2e-05 (inactive)
COC(=O)c1ccccc1NC(=O)CSc1nc2c(c(=O)n(C)c(=O)n2C)n1C	2e-05 (inactive)
O=C(c1ccco1)N1CCN(C(=O)c2cc3c(s2)-c2ccccc2OC3)CC1	3.2e-05 (inactive)
Cc1ccc(/C=c2\sc3nc(-c4ccccc4Br)nn3c2=O)o1	-5.1e-05 (inactive)
Cc1noc(C)c1CSc1nc2cc(S(=O)(=O)N3CCOCC3)ccc2o1	-0.000262 (inactive)
COc1ccccc1-n1c(=O)[nH]c2c(C(N)=O)nc(CC(C)C)nc21	-3e-05 (inactive)
COc1ccccc1N(CN1CCCC1=O)C(=O)c1c(F)cccc1Cl	-3.8e-05 (inactive)

Each recorded value in this set is attributed to PubChem BioAssay.
